SYSTEM_UNDER_TEST: human RIP1 kinase domain (2-375) (Homo sapiens (Human), UniProt Q13546)
Sequence (Q13546 2-375): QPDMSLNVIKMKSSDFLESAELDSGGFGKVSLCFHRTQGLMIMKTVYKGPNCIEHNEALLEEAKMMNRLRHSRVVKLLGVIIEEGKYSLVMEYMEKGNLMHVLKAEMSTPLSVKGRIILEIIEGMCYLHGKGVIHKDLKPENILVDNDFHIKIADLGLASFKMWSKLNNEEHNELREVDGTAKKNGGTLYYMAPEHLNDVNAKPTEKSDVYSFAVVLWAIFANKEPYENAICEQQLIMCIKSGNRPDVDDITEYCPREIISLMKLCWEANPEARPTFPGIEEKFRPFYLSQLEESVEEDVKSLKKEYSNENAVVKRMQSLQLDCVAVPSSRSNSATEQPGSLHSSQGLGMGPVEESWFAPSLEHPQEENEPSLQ
METHOD_SUMMARY: biochemical
Format: biochemical
CONDITION_SUMMARY: tight-binding apparent inhibition constant; human RIP1 kinase domain (2-375) 50 nM, 50 uM ATP, 2 hours; read-out: Ki
pKi: −log10 of the molar value.
Quick reference: pKi of the listed items.

COMPOUND	pKi
CN1C(=O)[C@@H](NC(=O)c2nc3n(n2)CCO[C@@H]3c2ccccc2F)COc2ccccc21	7.85
Cc1cc2n(n1)CC[C@H](NC(=O)c1ncn(Cc3ccccc3C#N)n1)C(=O)N2C	6.15
O=C(N[C@H]1CCc2cc(F)cc(F)c2NC1=O)c1nc2n(n1)CCO[C@H]2c1ccccc1F	7.52
O=C(N[C@H]1CCc2cc(F)cc(F)c2NC1=O)c1nc2cccc(C(F)(F)F)n2n1	7.46
CN1C(=O)[C@@H](NC(=O)c2nc3n(n2)CCOC3c2ccccc2)COc2ccccc21 (stereo partly shown)	7.54
CN1C(=O)[C@@H](NC(=O)c2nc3n(n2)CCO[C@@H]3c2ccccc2)COc2ccccc21	6.18
O=C(N[C@H]1CCc2cc(F)cc(F)c2NC1=O)c1nc2n(n1)CC[C@@H]2c1ccccc1 (single isomer, unassigned)	6.80

###

SYSTEM_UNDER_TEST: human RIP1 kinase domain (2-375) (Homo sapiens (Human))
METHOD_SUMMARY: biochemical
Format: biochemical
CONDITION_SUMMARY: tight-binding apparent inhibition constant; human RIP1 kinase domain (2-375) 50 nM, 50 uM ATP, 2 hours; read-out: Ki
pKi: −log10 of the molar value.
MEASURED_QUANTITY: pKi

COMPOUND	MEAS_VALUE
Cc1cc(F)c2c(c1)OC[C@H](NC(=O)c1nc3n(n1)[C@@H](C(C)C)CCC3)C(=O)N2 (single isomer, unassigned)	6.82
Cc1cn2c(n1)N(C)C(=O)[C@H](NC(=O)c1ncn(Cc3c(F)cccc3F)n1)CC2	7.21
O=C(N[C@H]1CCc2cc(F)cc(F)c2NC1=O)c1ncc2c(n1)C1(CCC1)OC2	7.62
O=C(N[C@H]1COc2cc(F)cc(F)c2NC1=O)c1nc2n(n1)[C@H](C(F)(F)F)CCC2 (single isomer, unassigned)	7.90
CC[C@@H]1CCc2nc(C(=O)N[C@H]3COc4ccccc4N(C)C3=O)nn21 (single isomer, unassigned)	6.52
CN1C(=O)[C@@H](NC(=O)c2ncn(Cc3ccc(F)cc3)n2)CCn2nc(C(F)(F)F)cc21	7.34
CN1C(=O)[C@@H](NC(=O)c2cc3c(cn2)COC32CCCOC2)COc2ccccc21 (stereo partly shown)	7.03
